# Test system: NCI-H522 lung
# protocol details: NCI-60 one-dose screen, 48 h (100 = growth as untreated, 0 = no growth, -100 = all killed)
# test parameters: 10 µM unless noted
The panel holds about 83,000 compounds, 20% with a hit somewhere; the sample as a whole holds those more often.
Listing: growth of selected compounds
value type: growth (%)

{"columns": ["compound", "obs value"],
 "data": [
  ["COc1ccc(C(=O)N2NC(=O)/C(=C/c3ccc(F)cc3)N=C2c2ccccc2)cc1", 93.3],
  ["Clc1cc(Cl)c2nc(-c3ccc(-c4ccc(/C=N/NC5=NCCN5)cc4)s3)cn2c1", 103],
  ["O=C(Nc1ccc2c(c1)OCO2)C(=O)c1c[nH]c2cc(F)ccc12", 61.2],
  ["N=C(N)c1ccc(-c2ccc(-c3cncc4ccccc34)s2)cc1F", -90.5],
  ["CC(C)(C)n1cc(-c2ccnc(NCCCNS(=O)(=O)c3ccc(C(F)(F)F)cc3)c2)c(-c2cccc(O)c2)n1", -13.3],
  ["CCOC(=O)c1c(NS(=O)(=O)c2ccc(C)cc2)sc2c1CCC1(C2)OCCO1", 79.6],
  ["CCN(CC)c1ccc(/C=C2\\Oc3ccc(O)c(I)c3C2=O)cc1", 22.6],
  ["CC[N+](CC)=c1cc2oc3cc(N(C)C)ccc3nc-2cc1C", -43.8],
  ["c1cc(C2=N[C@@H]3c4ccccc4C[C@@H]3O2)nc(C2=N[C@@H]3c4ccccc4C[C@@H]3O2)c1", 93.1],
  ["N#Cc1c(-c2ccccc2)cc(-c2ccccc2)n(CC(=O)NO)c1=O", -70.9],
  ["CN1CCN(Cc2ccc(NC(=O)c3cncc(C#Cc4cnc(N)c5cnccc45)c3)cc2C(F)(F)F)CC1", 10.8],
  ["COC(=O)C1CCCN1C(=O)[C@@H]1CCCN1C(=O)[C@H](Cc1c[nH]c2ccccc12)NC(=S)Nc1cc(C(F)(F)F)cc(C(F)(F)F)c1 (stereo partly drawn)", 46],
  ["O=[N+]([O-])c1ccc(Sc2ncccn2)c([N+](=O)[O-])c1", -50.1]
]}
